# assay system: GH (GH stock solution) (UniProt P01241)
# Sequence (P01241 27-217 limits assumed): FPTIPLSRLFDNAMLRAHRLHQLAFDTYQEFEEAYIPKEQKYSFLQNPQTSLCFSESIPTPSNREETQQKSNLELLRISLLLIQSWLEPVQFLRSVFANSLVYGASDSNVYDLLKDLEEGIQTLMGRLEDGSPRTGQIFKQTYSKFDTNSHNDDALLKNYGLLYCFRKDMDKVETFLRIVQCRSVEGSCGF
# test details: loss of dynamic binding capacity of the conjugated medium for GH after 0.1M NaOH 32h
reported endpoint: DBC decay rate

binder	DBC decay rate
WT (with tag), unmodified GH single-domain antibody molecule (VHH) VHH: QVQLVESGGGLAQAGGSLRLSCAVSGMPEFARAMGWFRQAPGKERELLAAIEGIGATTYYADSVKGRFTISRDDAANTVLLQMNSLKPDDTAVYYCAAAFSVTIPTRARHWVDWGPGTLVTVSS	35%
M74 (Second round) (VHH, Entry already carries A57D; G134R; R100eE); tail DDDDK-SGGRGS-HHHHHH) VHH: QVQLVESGGGLAQAGGSLRLSCAVSGMPEFARAMGWFRQAPGKERELLAAIEGIGDTTYYADSVKGRFTISRDDAANTVLLQMNSLKPDDTAVYYCAAAFSVTIPTRAEHWVDWGPGTLVTVSS	< 6%
M78 (Second round) (VHH, Entry already carries A57D; G134R; D102Y); tail DDDDK-SGGRGS-HHHHHH) VHH: QVQLVESGGGLAQAGGSLRLSCAVSGMPEFARAMGWFRQAPGKERELLAAIEGIGDTTYYADSVKGRFTISRDDAANTVLLQMNSLKPDDTAVYYCAAAFSVTIPTRARHWVYWGPGTLVTVSS	< 6%

Now look at this entry.
Given M20 (First round) (VHH) VHH: QVQLVESGGGLAQAGGSLRLSCAVSGMPEFARAMGWFRQAPGKERELVAAIEGIGATTYYADSVKGRFTISRDDAANTVLLQMNSLKPDDTAVYYCAAAFSVTIPTRARHWVDWGPGTLVTVSS , state its recorded DBC decay rate.
< 6%
